# assayedSystem: T1, RSV F subtype A, furin-cleaved ectodomain stabilized in the prefusion conformation (DS-Cav1) (Respiratory syncytial virus subtype A, UniProt P03420 26-524)
# T1 construct: extracellular domain; Trimeric soluble antigen; also called Prefusion subtype A
# assayNotes: BLI, IgG on AHQ sensor, 100 nM antigen
Returns: string. Value is Fulfilled if measured Kd is below 0.2 nM, and Not fulfilled if it is greater than or equal to it.

Worked examples, 4 binders total:
>  <binder>
ADI-18946 (antibody, V domains shown, full-length IgG from yeast) VH: QVQLVQSGGGVVQPGRSLRLSCAASGFTFSDYAMHWVRQAPGKGLEWVAIISYDANNKYYADSVKGRFTISRDNSKNTVYLQMNSLRPEDTAVYYCAKEEWLVPAYWGQGILVTVSS VL: QSVLTQPASVSGSPGQSITISCTGTSSDVGGYNYVSWYQQHPGKAPKLLIYEVSNRPSGVSNRFSGSKSGNTASLTISGLQPEDEADYYCSSYSTNSAPFGTGTKLTVL

>  <labelClass>
Fulfilled

$$$$
>  <binder>
ADI-18891 (antibody, V domains shown, full-length IgG from yeast; also called Antibody Number 246; Ab # 246) VH: QVQLQESGAEVKKPGSSVKVSCKASGGAFSSYAISWVRQAPGQGLEWLGGITHLFGTVSYAPKFQGRVTITADASTGTLYMVLNSLKPEDTAIYYCARDAYEVWTGSYLPPFDYWGQGTLVTVSS VL: EIVLTQSPGTLSLSPGERATLSCRASQTVTSNYLAWYQQKPGQAPRLLIYDALTRATGIPDRFSGSGSGTDFTLTISRLEPEDFALYYCQQYGSSFLTFGGGTKLEIK

>  <labelClass>
Not fulfilled

$$$$
>  <binder>
ADI-18908 (antibody, V domains shown, full-length IgG from yeast) VH: QVQLVESGGGLVKPGGSLRLSCAASGFTFSSFGMHWVRQAPGQGLEWVASITGGSSYINYADSVKGRFTISRDNAKKSLSLQMKNLRAEDTAEYYCVRGVLPGGTGGGWFDSWGQGTLVTVSS VL: QSVLTQPPSMSGAPGQRVTISCTGTSSNIGAGYDVQWYQQFPGTAPKLLISGNNNRPSGVPDRFSGSKSGASASLAITGLQAEDEADYYCQSYDYSLNWVFGGGTKLTVL

>  <labelClass>
Not fulfilled

$$$$
>  <binder>
ADI-18882 (antibody, V domains shown, full-length IgG from yeast) VH: QVQLVQSGAEVKKPGSSVRVSCKASGGTFRGYGLSWVRQAPGQGLEWMGGITHLFGTVSYAPKFQGRLTITADASTGTAYMELSSLISEDTAVYFCARDAYEVWTGSYLPPFDYWGQGTMVTVSS VL: DIVMTQSPGTLSLSPGERVTLSCRASQIIPSSYLAWYQQKPGQAPRLLIYGAFTRATDIPDRFSGSGSGTDFTLTISRLEPEDFAVYYCQQYGSSFLTFGGGTKVEIK

>  <labelClass>
Not fulfilled

$$$$

# next binder below
Kd strictly < 0.2 nM for this binder? ADI-18893 (antibody, V domains shown, full-length IgG from yeast; also called Antibody Number 248; Ab # 248) VH: EVQLLESGGGLVKPGGSLRLSCVASGFTFSSYNINWVRQAPGKGLEWVSSISGGSNYIDYADSVKGRFTISRDNAKNSLYLQMNNLRAEDTAVYYCARLGYGGNPELDYWGQGTLVTVSS VL: QSVLTQPPSVSGAPGQRVTISCTGSSSNIGAGYDVHWYQQRPGTAPKLLIYANNNRPSGVPDRFSGSKSGTSASLAITGLQAEDEADYYCQSYDLSLSSSRVFGGGTKLTVL
Not fulfilled
